Measured solubility at 2 h by item
Protocol: Kinetic Solubility Assay in pH 7.4 Buffer + 2% DMSO
Type: physicochemical
Stated conditions: phosphate-buffered saline pH 7.4 with 2% DMSO, aqueous buffer, kinetic from dmso stock, 25° C., two hours
Endpoint label: solubility at 2 h

1. Cc1c(-c2ccn(C)n2)cn2nc(-c3nccn3C)nc(Nc3cc4c(cn3)CCO4)c12 :: 10 to 30 µM
2. Cc1c(-c2ccn(C(C)C)n2)cn2nc(-c3nccn3C)nc(Nc3ccn(C4CC4)n3)c12 :: 10 to 30 µM
3. CCOc1cc(Nc2nc(-c3nccn3C)nn3cc(-c4ccn(C)n4)c(C)c23)n[nH]1 :: < 10 µM
4. Cc1c(-c2ccn(C(C)C)n2)cn2nc(-c3nccn3C)nc(Nc3ccncn3)c12 :: 10 to 30 µM

* * *

Tested on: KRas wild type
Protocol: Ras GTP Binding Domain Inhibition Assay (Ras Superfamily Assay)
Stated conditions: 20 μM compound, with SOS
Structures can show the parent of a compound that is named as a salt.
Endpoint label: KRas wild type + SOS: % inh.

1. COc1cc(Nc2nc(-c3nccn3C)nn3cc(-c4cccnc4)c(-c4ccccn4)c23)ncn1 :: A (A = 1-25% inhibition)
2. CO[C@H]1C[C@@H](Nc2nc(-c3nccn3C)nn3cc(-c4ccn(C)n4)c(C)c23)C1 :: 0 (0 = 0% inhibition)
3. COC1CCCN(c2nc(-c3ccccn3)nn3cc(-c4ccn(C(C)C)n4)c(-c4ccccc4)c23)C1 (racemic) :: A (A = 1-25% inhibition)
4. COC[C@@H]1CC[C@@H]1CNc1nc(-c2ccccn2)nn2cc(-c3ccn(C(C)C)n3)c(C)c12 (racemic) :: 0 (0 = 0% inhibition)
5. COc1cc(-c2cn3nc(-c4nccn4C)nc(N[C@H]4C[C@@H](OC)C4)c3c2C)ccn1 :: 0 (0 = 0% inhibition)
6. COc1cccc(-c2cn3nc(-c4nccn4C)nc(N[C@H]4C[C@H](OC)C4)c3c2-c2ccn(C)n2)c1F :: 0 (0 = 0% inhibition)
7. COc1cc(Nc2nc(-c3nccn3C)nn3cc(-c4ccncc4)c(C)c23)ncn1 :: 0 (0 = 0% inhibition)
8. COc1cc(Nc2nc(-c3nccn3C)nn3cc(-c4ccn(C(C)C)n4)c(-c4ccccc4)c23)ncn1 :: A (A = 1-25% inhibition)
9. COc1cccc(-c2cn3nc(-c4nccn4C)nc(N[C@H]4C[C@H](OC)C4)c3c2-c2ccccc2)c1F :: 0 (0 = 0% inhibition)
10. CO[C@H]1CC[C@@H](Nc2nc(-c3nccn3C)nn3cc(-c4ccn(C(C)C)n4)c(-c4ccccc4)c23)C1 (racemic) [Compound 18, hydrochloride] :: A (A = 1-25% inhibition)
11. COCc1noc(Nc2nc(-c3nccn3C)nn3cc(-c4ccn(C(C)C)n4)c(C)c23)n1 :: 0 (0 = 0% inhibition)

* * *

Test system: Erk1/2 phosphorylation
Protocol: Erk1/2 Phosphorylation Assay (western blot), Panc-1
Assay type: cell-based, human
Stated conditions: at 10 μM, * = activation
Endpoint label: % inh of Erk1/2 phosphorylation in Panc-1

1. Cc1c(-c2ccn(C(C)C)n2)cn2nc(-c3nccn3C)nc(Nc3ccn(C)n3)c12 [Compound 61] :: A* (1-25% activation)
2. Cc1c(-c2ccn(C)n2)cn2nc(-c3nccn3C)nc(Nc3cc4c(cn3)CCO4)c12 [Compound 221] :: A* (1-25% activation)
3. Cc1ccn2nc(-c3nccn3C)nc(N)c12.O=C(O)C(F)(F)F [Compound 37] :: 0 (0% inhibition)

* * *

Test system: KRas G12D mutant
Protocol: Ras GTP Binding Domain Inhibition Assay (Ras Superfamily Assay)
Stated conditions: 20 μM compound, with SOS
Endpoint label: KRas G12D mutant + SOS: % inh.

1) COc1ncccc1Nc1nc(-c2nccn2C)nn2cc(-c3ccn(C(C)C)n3)c(C)c12 [Compound 85] :: A (A = 1-25% inhibition)
2) Cc1c(-c2ccn(C(C)C)n2)cn2nc(-c3nccn3C)nc(Nc3cc(C4CC4)no3)c12 [Compound 69] :: A (A = 1-25% inhibition)
3) COc1cc(-c2cn3nc(-c4nccn4C)nc(N[C@@H]4CC[C@H](OC)C4)c3c2C)ccn1 (racemic) [Compound 164] :: 0 (0 = 0% inhibition)
4) COc1cccc(-c2cn3nc(-c4nccn4C)nc(N[C@H]4C[C@H](OC)C4)c3c2-c2ccccc2)c1F [Compound 42] :: 0 (0 = 0% inhibition)

* * *

Tested on: KRas wild type
Protocol: Ras GTP Binding Domain Inhibition Assay (Ras Superfamily Assay)
Stated conditions: 20 μM compound, without SOS
Endpoint label: KRas wild type: % inh.

1) COCCNC(=O)c1c(-c2ccn(C)n2)cn2nc(-c3nccn3C)nc(N[C@H]3CC[C@H](OC)C3)c12 (racemic) :: 0 (0 = 0% inhibition)

* * *

System: KRas G12D mutant
Protocol: Ras GTP Binding Domain Inhibition Assay (Ras Superfamily Assay)
Stated conditions: at 20 μM, with SOS
Endpoint label: KRas G12D mutant + SOS: % inh.

1) CO[C@@H]1C[C@H]1Nc1nc(-c2nccn2C)nn2cc(-c3ccncc3)c(-c3ccccc3)c12 (racemic) :: A (A = 1-25% inhibition)
2) Cn1ccnc1-c1nc(O)c2c(-c3ccccc3)c(-c3cccnc3)cn2n1 :: A (A = 1-25% inhibition)
3) Cc1c(-c2ccn(C)n2)cn2nc(-c3nccn3C)nc(Nc3cc(C(F)F)[nH]n3)c12 :: 0 (0 = 0% inhibition)
4) CO[C@H]1C[C@H](Nc2nc(-c3nccn3C)nn3cc(-c4ccc(CCN)cc4)c(-c4ccccc4)c23)C1.Cl :: A (A = 1-25% inhibition)
5) CO[C@H]1C[C@H](Nc2nc(-c3nccn3C)nn3cc(-c4cccc(OCCN)c4)c(-c4ccccc4)c23)C1 :: A (A = 1-25% inhibition)

* * *

Measured inhibition at 20 µM by item
Tested target: Rac-1 (Homo sapiens)
Construct: made in house
Protocol: Ras GTP Binding Domain Inhibition Assay (Ras Superfamily Assay)
Stated conditions: read-out: Rac-1: % inh.
Excerpt: Biological Example 3: Ras GTP Binding Domain Inhibition Assay The assays described in Example 3 are collectively referred to as the “Ras Superfamily Assay” throughout this application. […] The small GTPases proteins: KRas wild type. KRas Q61H mutant, KRas G12C mutant, KRas G12D mutants, Rac-1, and Rho-A were expressed as His-tagged proteins. In addition, the Guanosine nucleotide Exchange Factor (GEF) Sos protein (residues 556-1049) was expressed as a His-tagged protein. […]
Endpoint label: inhibition at 20 µM

1) Cc1c(-c2ccn(C3CC3)n2)cn2nc(-c3nccn3C)nc(Nc3cc(OC(F)F)ccn3)c12 [Compound 139] :: 76 to 100%
2) Cc1c(-c2ccn(C)n2)cn2nc(-c3nccn3C)nc(Nc3cc(C(C)(C)O)ccn3)c12 [Compound 240] :: 76 to 100%
3) CO[C@@H]1CC[C@@H](Nc2nc(-c3nccn3C)nn3cc(-c4ccn(C)n4)c(C)c23)C1 (racemic) [Compound 132] :: 1 to 25%
4) Cc1c(-c2ccn(C)n2)cn2nc(-c3nccn3C)nc(Nc3ccncn3)c12.Cl [Compound 116, hydrochloride salt] :: 50 to 75%
5) COCCO[C@H]1C[C@H](Nc2nc(-c3nccn3C)nn3cc(-c4cccc(OC)c4F)c(-c4ccccc4)c23)C1 [Compound 44] :: 26 to 49%
6) COc1cnc(Nc2nc(-c3nccn3C)nn3cc(-c4ccn(C)n4)c(C)c23)cc1C [Compound 236] :: 50 to 75%
7) CO[C@H]1CC[C@@H](Nc2nc(-c3nccn3C)nn3cc(-c4cccnc4)c(-c4ccccc4)c23)C1 (racemic) [Compound 193] :: 1 to 25%

* * *

Tested on: KRas G12D mutant
Protocol: Ras GTP Binding Domain Inhibition Assay (Ras Superfamily Assay)
Stated conditions: 20 μM compound, without SOS
Endpoint label: KRas G12D mutant: % inh.

1) COc1cccc(Nc2nc(-c3ccccn3)nn3cc(-c4ccn(C(C)C)n4)c(C)c23)n1 :: A (A = 1-25% inhibition)
2) COc1ccc(Nc2nc(-c3nccn3C)nn3cc(-c4ccn(C(C)C)n4)c(C)c23)cn1 :: A (A = 1-25% inhibition)
3) COCCNc1nc(-c2nccn2C)nn2cc(-c3cccc(OC)c3Cl)c(C)c12 :: A (A = 1-25% inhibition)
4) COCC1CCN(c2nc(-c3ccccn3)nn3cc(-c4ccn(C(C)C)n4)c(C)c23)C1 (racemic) :: A (A = 1-25% inhibition)
5) Cc1c(-c2ccn(C(C)C)n2)cn2nc(-c3nccn3C)nc(Nc3ncco3)c12 :: A (A = 1-25% inhibition)
6) COc1cccc(-c2cn3nc(-c4nccn4C)nc(N[C@H]4C[C@H](OC)C4)c3c2-c2ccccc2)c1F :: 0 (0 = 0% inhibition)
